Tested on: COLO 205
Test: NCI tumour cell line growth inhibition, 48 h
Calls of active or inactive are those of the source. Cut-off read from the data, not from the text of the source: active = GI50 up to about 1.1 µM and inactive = higher.
Classes used: yes for active, no for inactive

Compound: COc1cc(C2c3cc4c(cc3OC(N3CCOCC3)C2C)OCO4)cc(OC)c1O (stereo not given)
Qualitative Label: no
//
Compound: O=C1c2ccsc2C(=O)c2sc(CO)cc21
Qualitative Label: yes
//
Compound: CCCOC(=O)C1CCC(=O)N1C(=O)C(C)Cl (stereo not given)
Qualitative Label: no
//
Compound: CN1CCN(C)C12C=CC=CC21CC1
Qualitative Label: no
//
Compound: Cc1cn([C@@H]2C[C@@H]2CO)c(=O)[nH]c1=O
Qualitative Label: no

###

Test system: CCRF-CEM
Test: NCI tumour cell line growth inhibition, 48 h
Active and inactive are the calls of the source. Rule as the data show it: active = GI50 up to about 1.1 µM and inactive = higher. Non-standard residues stand in square brackets, D forms with d. Residues, ends and D or L forms follow the SMILES beside them. *: point of attachment. Ac5c = NC1(C(=O)O)CCCC1; Boc = CC(C)(C)OC(=O)*; tBu = CC(C)(C)*
Reported GI50 by item:

Compound: CC(OC(C)(C)C)C(NC(=O)C(CCCCNC(=O)OC(C)(C)C)NC(=O)C(Cc1c[nH]c2ccccc12)NC(=O)C(N)Cc1ccccc1)C(=O)NC(Cc1ccccc1)C(=O)NC1(C(=O)O)CCCC1 (centres undefined) (H-FWK(Boc)T(tBu)F[Ac5c]-OH; configuration not given here)
GI50: > 100 µM (inactive)
//
Compound: O=C(SC1=NCCN1)c1cccc2ccccc12
GI50: 21.8 µM (inactive)
//
Compound: COc1ccc(Cc2ccccc2C(=O)O)c2ccccc12
GI50: 26.1 µM (inactive)
//
Compound: O=C1/C(=C2/C(=O)N(c3ccccc3)c3ccccc32)Nc2ccccc21
GI50: 92.3 µM (inactive)

###

Test system: MDA-MB-435
Test: NCI tumour cell line growth inhibition, 48 h
Active and inactive are the calls of the source. Cut-off read from the data, not from the text of the source: active = GI50 up to about 1.1 µM and inactive = higher. Non-standard residues stand in square brackets, D forms with d. Residues, ends and D or L forms follow the SMILES beside them. *: point of attachment. Ac5c = NC1(C(=O)O)CCCC1; Boc = CC(C)(C)OC(=O)*; tBu = CC(C)(C)*
Reported GI50 by item:
Measurement Label: GI50

Molecule: CCN(CC)/[N+]([O-])=N/OS(=O)(=O)N(C)C
Result: > 100 µM (inactive)
//
Molecule: CC[C@@]1(O)C(=O)OCc2c1cc1n(c2=O)Cc2c-1nc1ccccc1c2/C=N\NC(=O)CN
Result: 1.61 µM (inactive)
//
Molecule: Cc1cc(S(=O)(=O)O)c(NC(=O)c2oc3cc(O)ccc3c(=O)c2C)cc1Cl
Result: > 100 µM (inactive)
//
Molecule: CC(OC(C)(C)C)C(NC(=O)C(CCCCNC(=O)OC(C)(C)C)NC(=O)C(Cc1c[nH]c2ccccc12)NC(=O)C(N)Cc1ccccc1)C(=O)NC(Cc1ccccc1)C(=O)NC1(C(=O)O)CCCC1 (stereo not drawn) (H-FWK(Boc)T(tBu)F[Ac5c]-OH; configuration not given here)
Result: > 100 µM (inactive)
//
Molecule: Cn1c2ccccc2c(=NNc2ccc(C(=O)O)cc2)c2ccccc21
Result: 19 µM (inactive)
//
Molecule: COC(=O)C1=C(C)NC2=C(C(=O)c3ccccc32)C1c1c[nH]nc1-c1ccccc1 (stereo not drawn)
Result: 57.4 µM (inactive)
//
Molecule: Cn1c2c(c3ccccc31)CCN1C(=O)C3SC21C1C(=O)N(c2ccccc2)C(=O)C31 (stereo not drawn)
Result: > 100 µM (inactive)
//
Molecule: O=C1CCCNn2c(nc3ncccc3c2=O)N1
Result: > 100 µM (inactive)

###

Test system: CCRF-CEM
Test: NCI tumour cell line growth inhibition, 48 h
Active and inactive are the calls of the source. Rule as the data show it: active = GI50 up to about 1.1 µM and inactive = higher.

Compound: FC(F)(F)c1ccc2nc(NCc3ccccc3)c(-c3ccccc3)nc2c1
GI50: 37.2 µM (inactive)

Compound: Cc1cc(S(=O)(=O)NC(=C(C#N)C#N)[n+]2ccc(N(C)C)cc2)c([S-])cc1Cl
GI50: > 100 µM (inactive)

Compound: CCCOC(=O)C1CCC(=O)N1C(=O)C(C)Cl (configuration not stated)
GI50: > 100 µM (inactive)

Compound: CCN(CC)c1ccc2cc(-c3nnc(-c4ccccc4O)o3)c(=O)oc2c1
GI50: 2.37 µM (inactive)

Compound: CC(C)C(C/C=C1/CC(CO)(COC(=O)C2CCCCC2)OC1=O)C(C)C (configuration not stated)
GI50: 17.2 µM (inactive)

Compound: Cc1c(N2CCOCC2)nc2ccc(Cl)cc2c1-c1ccccc1
GI50: 26.7 µM (inactive)

Compound: O=C(O)C12CCC(CC1=O)C2 (configuration not stated)
GI50: > 100 µM (inactive)

Compound: CCCN1CN(C(C(=O)N[C@@H]2C(=O)N3C2SC(C)(C)C3C(=O)O)c2ccccc2)CSC1=S (some centres not stated)
GI50: 95.9 µM (inactive)

Compound: O=C(NC1(c2cc3ccccc3s2)CCCCC1)C1CCC1
GI50: > 100 µM (inactive)

Compound: CC(C)(C)C#COC(=O)c1ccccc1
GI50: > 100 µM (inactive)

Compound: C/C(=N\NC(=S)N1CCCCCC1)c1ccccn1
GI50: 0.00383 µM (active)

Compound: Cc1ccc(S(=O)(=O)ON/N=C2/C3OC3[C@@H]3CCCC[C@H]23)cc1 (some centres not stated)
GI50: > 100 µM (inactive)

Compound: COc1ccc(/N=N/C(=N\c2ccc(Cl)cc2)c2ccc(N(CCC#N)CCC#N)cc2)cc1
GI50: < 0.01 µM (active)

Compound: Cc1ccc2nc(NC(=O)C(=O)CC(=O)c3cccc4ccccc34)sc2c1
GI50: 30.8 µM (inactive)

Compound: O=C(O)CNCc1c2ccccc2[n+]([O-])c2ccccc12
GI50: 34.3 µM (inactive)

Compound: O=C1CCC(c2ccccc2)(c2ccccc2)CC1
GI50: 19.8 µM (inactive)

Compound: Cc1cn([C@@H]2C[C@@H]2CO)c(=O)[nH]c1=O
GI50: > 100 µM (inactive)

Compound: COC(=O)[C@H](COC(=O)/C=C/c1ccc(OC(C)=O)c(OC(C)=O)c1)NC(=O)/C=C/c1ccc(OC(C)=O)c(OC(C)=O)c1
GI50: 5.98 µM (inactive)

Compound: O=C(/C=C/c1ccc(O)c(-c2cc(C(=O)/C=C/c3ccc(O)cc3)c(O)cc2O)c1)c1ccc(O)cc1O
GI50: 10.1 µM (inactive)

Compound: O=C1c2ccsc2C(=O)c2sc(CO)cc21
GI50: 0.207 µM (active)

Compound: COc1cc2c3c(c1OCc1ccccc1)NCCC3NCC2 (configuration not stated)
GI50: > 100 µM (inactive)

Compound: Clc1nc(Cl)c(Cc2ccccc2)c(Cl)n1
GI50: 3.27 µM (inactive)

###

Test system: NCI/ADR-RES
Test: NCI tumour cell line growth inhibition, 48 h
The source made the active and inactive calls. Cut-off read from the data, not from the text of the source: active = GI50 up to about 1.1 µM and inactive = higher. Square brackets hold non-standard residues; d marks the D form. Peptide text beside a SMILES is read from it. * marks the point of attachment. NMeV = CN[C@H](C(=O)O)C(C)C; X28 = COc1ccc(CN*)c(OC)c1; Octanoyl = CCCCCCCC(=O)*; dNMeA = CN[C@H](C)C(=O)O
Reported GI50 by item:
Measurement Label: GI50

Compound: O=C(C1OC1c1cccc([N+](=O)[O-])c1)C12CC3CC(CC(C3)C1)C2 (stereo not given)
Result: 3.24 µM (inactive)
--
Compound: CCCCCCCC(=O)N[C@H](C(=O)N[C@H](C(=O)N(C)[C@H](C(=O)N1CCC[C@H]1C(=O)N(C)[C@H](C)C(=O)NCc1ccc(OC)cc1OC)C(C)C)C(C)C)C(C)C (Octanoyl-VV[NMeV]P[dNMeA]-X28)
Result: 42.1 µM (inactive)
--
Compound: O=C(NC1(c2cc3ccccc3s2)CCCCC1)C1CCC1
Result: > 100 µM (inactive)
--
Compound: CCOc1ccc2nc(NC(NC(=O)c3cccnc3)(C(F)(F)F)C(F)(F)F)sc2c1
Result: 25.8 µM (inactive)
--
Compound: O=c1c2ncn(C3CC(O)C(CO)O3)c2nnn1Cc1ccccc1[N+](=O)[O-] (stereo not given)
Result: > 100 µM (inactive)

###

Tested on: ACHN
Test: NCI tumour cell line growth inhibition, 48 h
Activity calls are given as the source filed them. Rule as the data show it: active = GI50 up to about 1.1 µM and inactive = higher.
Classes used: YES (active), NO (inactive)

Compound: CC(=O)NNc1nc(C)c(C(/C=C/c2cccc([N+](=O)[O-])c2)=N/NC(=S)NN)s1
Qualitative Label: NO
--
Compound: O=c1c2c3c(sc2nc2n1sc1nc4sc5c(c4c(=O)n12)CCCC5)CCCC3
Qualitative Label: NO
--
Compound: CC(C)(C)c1cc(C(=O)/C=C/c2ccc3c(c2)CCO3)cc(C(C)(C)C)c1O
Qualitative Label: NO
--
Compound: NCCN1C(=O)CN=C(c2ccc(Cl)cc2)c2cc(Cl)ccc21
Qualitative Label: NO
--
Compound: CCCCNC1CCC2(SCCS2)c2[nH]c3ccccc3c21 (configuration not stated)
Qualitative Label: NO
--
Compound: Oc1cc(Br)cc2cc(Cl)cnc12
Qualitative Label: NO
--
Compound: CCOC(=O)C(Cl)(Cl)/S(=N\S(=O)(=O)c1ccccc1)NC(=O)c1ccccc1 (configuration not stated)
Qualitative Label: NO
--
Compound: COc1ccccc1N1C(=O)CSC1c1cc(OC)c(OC)c(OC)c1 (configuration not stated)
Qualitative Label: NO
--
Compound: CCSCCCCC(c1ccc(O)cc1)C(C)(CC)c1ccc(O)cc1 (configuration not stated)
Qualitative Label: NO
--
Compound: CC(=O)O[C@H]1C[C@H]2[C@@H]([C@H](OC(C)=O)C[C@@H]3CC4(CC[C@@]32C)OOC2(CCCCC2)OO4)[C@@H]2CC[C@H]([C@H](C)CCC(N)=O)[C@@]12C
Qualitative Label: NO
--
Compound: N/C(=C\c1ccc(OCc2ccccc2)c(OCc2ccccc2)c1[N+](=O)[O-])C(=O)O
Qualitative Label: NO
--
Compound: COC1CC(COCc2ccccc2)CC(OC)O1 (configuration not stated)
Qualitative Label: NO
--
Compound: CC12OC(=O)C(C#N)C1(C)C1C(=O)CCCC12 (configuration not stated)
Qualitative Label: NO
--
Compound: Cc1cc(=O)oc2cc(OCC(O)COC(C)C)ccc12 (configuration not stated)
Qualitative Label: NO
--
Compound: COc1ccc(-c2cc(-c3cc(C)cc(Br)c3O)no2)cc1
Qualitative Label: NO
--
Compound: CN(C)c1nc(N(C)C)nc(N(C)CN(C)c2nc(N(C)C)nc(N(C)C)n2)n1
Qualitative Label: NO
--
Compound: CCOC(=O)NC(Nc1ccc([N+](=O)[O-])cc1)(C(F)(F)F)C(F)(F)F
Qualitative Label: NO
--
Compound: Nc1ncnc2c1ccn2C1OC2COP(=O)(O)OC2C1O (configuration not stated)
Qualitative Label: YES
--
Compound: C[N+]1(C)C/C(=C\c2ccc(O)cc2)C(=O)/C(=C/c2ccc(O)cc2)C1
Qualitative Label: NO
--
Compound: O=C(Nc1ccc(F)cc1)c1cc2ccc(O)cc2o/c1=N\c1cccc(F)c1
Qualitative Label: NO
--
Compound: CCCOP1(=O)C=CC(Cl)=C(C)C1 (configuration not stated)
Qualitative Label: NO
--
Compound: O=C(CSCC(=O)N/N=C\c1ccc(F)cc1F)N/N=C\c1ccc(F)cc1F
Qualitative Label: NO
